target: 3-pTza peptide (Biotin-AminocaproicAcid-A.G.A.G.3-pTza.A.G.A.G); assay: BLI; biotinylated peptide captured on streptavidin biosensors at 20 nM; IgG in solution at 20-200 nM; Octet HTX; 1x HBS-T, 1% BSA
Metric name: Kd (nM)
Respond with the bare value in nM.

Return reported Kd; argument: hSC44.13 IgG (antibody, V domains shown) VH: EVQLVESGGGLVQPGGSLRLSCTASGFSIDSYGFSWVRQAPGKGLEHIGYLTAGGRAFYASWAKSRSTITRNTNENTVTLKMNSLRAEDTAVYYCAKLGTGSPVAIWG VL: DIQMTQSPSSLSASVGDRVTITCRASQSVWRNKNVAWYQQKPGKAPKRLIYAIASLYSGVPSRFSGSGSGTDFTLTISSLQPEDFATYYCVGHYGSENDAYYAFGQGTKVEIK
0.405

Return reported Kd; argument: hSC44.3 IgG (antibody, V domains shown) VH: EVQLVESGGGLVQPGGSLRLSCTASGFSIDSYGFSWVRQAPGKGLEHIGYLTAGGRAFYASWAKSRSTITRNTNENTVTLKMNSLRAEDTAVYYCAKIGSGSPVAIWG VL: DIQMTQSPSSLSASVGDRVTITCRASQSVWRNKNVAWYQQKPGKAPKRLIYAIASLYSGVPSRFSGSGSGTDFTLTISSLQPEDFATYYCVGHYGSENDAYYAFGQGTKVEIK
0.352

Return reported Kd; argument: hSC44.22 IgG (antibody, V domains shown) VH: EVQLVESGGGLVQPGGSLRLSCTASGFSIDSYGFSWVRQAPGKGLEHIGYLTAGGRAFYASWAKSRSTITRNTNENTVTLKMNSLRAEDTAVYYCAKLGTGTPVAIWG VL: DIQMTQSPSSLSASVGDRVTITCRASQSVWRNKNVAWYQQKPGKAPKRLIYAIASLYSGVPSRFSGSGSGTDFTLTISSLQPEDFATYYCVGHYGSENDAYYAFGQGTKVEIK
0.495
